PROCEDURE_DETAILS: chemical genetic growth profiling, strain panel (AID 1159580);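 also: tested at 20 µM; growth read once vehicle control cultures reached saturation at 30 °C; 1 = growth at the plate median or of vehicle wells; lower values mean less growth of the strain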
PARTICULARS: S. cerevisiae deletion strains, growth OD, locus YPL106C, strain sse1
Hit rate of the full screen: of about 5,500 compounds, about 2,000 (36%) were called active. Another 18% or so got no clear call; they are omitted. Rule as the data show it: active = normalized growth mostly below about 0.91 (no sharp cut-off); inconclusive = no clear call, values can overlap the other calls; inactive = mostly above about 0.92. This is one part of the list.
Outcome codes: true (1) for active, false (0) for inactive

# COMPOUND, CLASSIFICATION
records = [
    ("CCC(C)C(=O)c1c(O)c(C)c2oc3c(C)c(O)c(C(=O)C(C)CC)c(O)c3c2c1O (stereo unspecified)", "false (0)"),
    ("Cc1onc(-c2ccccc2)c1-c1ccc(S(N)(=O)=O)cc1", "false (0)"),
    ("COc1c(C)c2c(c(O)c1C/C=C(\\C)CCC(=O)O)C(=O)OC2", "true (1)"),
    ("O=C(O)C1CCCNC1 (stereo unspecified)", "false (0)"),
    ("CC(O)(P(=O)(O)O)P(=O)(O)O", "false (0)"),
    ("CC(=O)OC/C=C(\\C)CC/C=C(\\C)CC/C=C(\\C)CC/C=C(\\C)CC/C=C(\\C)CC/C=C(\\C)CC/C=C(\\C)CC/C=C(\\C)CCC=C(C)C", "false (0)"),
]

* * *

PROCEDURE_DETAILS: chemical genetic growth profiling, strain panel (AID 1159580);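 also: tested at 20 µM; growth read once vehicle control cultures reached saturation at 30 °C; 1 = growth at the plate median or of vehicle wells; lower values mean less growth of the strain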
PARTICULARS: S. cerevisiae deletion strains, growth OD, locus YBR229C, strain ROT2, stronger effect = lower value
In all, about 5,500 compounds went through this assay and about 2,000 (36%) were called active. Roughly 18% stayed inconclusive and do not appear here. This is one part of the list.
Lab note: anything with normalized growth below 1 is marked criterion met; values at 1 or higher are marked criterion not met.

# MOLECULE, CLASSIFICATION
measured = [
    ("c1ccc(-c2csc(-c3cccnc3)n2)cc1", "criterion met"),
    ("CCOC(=O)c1ccc(Oc2sccc2[N+](=O)[O-])cc1", "criterion met"),
    ("Clc1ccc(CSC(Cn2ccnc2)c2ccc(Cl)cc2Cl)cc1 (stereo not given)", "criterion met"),
    ("Oc1c(Cl)cc(Cl)c(Cl)c1Cc1c(O)c(Cl)cc(Cl)c1Cl", "criterion met"),
    ("Clc1ccc(COC(Cn2ccnc2)c2ccc(Cl)cc2Cl)c(Cl)c1 (stereo not given)", "criterion met"),
    ("CC(=O)C1CCC2C3CCC4C[C@H](O)CCC4(C)C3C[C@H](O)C12C (stereo not given in full)", "criterion not met"),
    ("C[C@]12CCC3C(CC[C@H]4C[C@@H](O)CC[C@]34C)C1CC[C@@H]2O (stereo not given in full)", "criterion not met"),
]

* * *

PROCEDURE_DETAILS: chemical genetic growth profiling, strain panel (AID 1159580);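 also: tested at 20 µM; growth read once vehicle control cultures reached saturation at 30 °C; 1 = growth at the plate median or of vehicle wells; lower values mean less growth of the strain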
PARTICULARS: S. cerevisiae deletion strains, growth OD, locus YHR030C, strain SLT2
Screen size: about 5,500 compounds; about 2,000 (36%) were called active. Another 18% or so got no clear call; they are omitted. Cut-off read from the data, not from the text of the source: active = normalized growth mostly below about 0.91 (no sharp cut-off); inconclusive = no clear call, values can overlap the other calls; inactive = mostly above about 0.92. This is one part of the list.
Possible outcomes: true for active, false for inactive

# MOLECULE, CLASSIFICATION
records = [
    ("O=C(Oc1ccc(Cl)cc1Cl)c1c(Cl)cccc1Cl", "true"),
    ("COC(=O)c1cscc1Sc1ccc(Cl)cc1", "true"),
    ("O=C(O)COc1ccc(Cl)cc1Cl", "false"),
    ("CC(Oc1ccc(Cl)cc1Cl)C(=O)O (configuration not stated)", "false"),
    ("NC(=O)CC[C@H](N)C(=O)O", "false"),
    ("COC(=O)c1ccsc1N", "false"),
    ("COc1cscc1C(N)=O", "false"),
]

All values here come from PubChem BioAssay AID1159580.
